target: T1, cynomolgus HER3 antigen (cynomolgus monkey, UniProt G7PIG5 20-643); experiment: SPR (ProteOn XPR36), IgG captured by anti-human Fc, soluble monovalent antigen, 1:1 fit
T1 construct: In-house antigen; also called cynomolgus antigen
T1 sequence (G7PIG5 entry or part of it): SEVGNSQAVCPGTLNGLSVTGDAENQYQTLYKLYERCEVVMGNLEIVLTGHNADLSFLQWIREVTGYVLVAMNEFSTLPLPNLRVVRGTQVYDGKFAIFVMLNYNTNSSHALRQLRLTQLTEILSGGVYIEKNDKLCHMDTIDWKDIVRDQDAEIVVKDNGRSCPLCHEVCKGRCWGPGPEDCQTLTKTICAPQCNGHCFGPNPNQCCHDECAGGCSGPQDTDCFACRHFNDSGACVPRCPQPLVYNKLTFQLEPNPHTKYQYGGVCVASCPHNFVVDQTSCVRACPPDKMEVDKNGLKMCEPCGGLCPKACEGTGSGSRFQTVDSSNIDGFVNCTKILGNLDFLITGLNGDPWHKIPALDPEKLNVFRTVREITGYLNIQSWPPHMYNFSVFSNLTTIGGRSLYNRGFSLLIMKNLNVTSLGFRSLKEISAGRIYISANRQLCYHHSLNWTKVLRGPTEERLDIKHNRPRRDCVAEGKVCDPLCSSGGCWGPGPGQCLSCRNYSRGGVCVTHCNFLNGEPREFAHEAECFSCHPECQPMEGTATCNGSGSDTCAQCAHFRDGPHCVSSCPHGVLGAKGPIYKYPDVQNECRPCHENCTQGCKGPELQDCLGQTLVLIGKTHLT
A collection of binders and their measured koff
Your answer is read as s⁻¹, so omit the unit and give the number.

humanized anti-HER3 antibody 11006 (antibody, V domains shown) VH: QVQLQESGPGLVKPSQTLSLTCTVSGYSITSAYYWNWIRQHPGKGVEWMGYIGYSGRNTYNPSLKNRVTISRDTSKNQFSLKLSSVTAADTAVYYCSREGDYGYSDYWGQGTLVTVSS VL: DIQMTQSPSSLSASVGDRVTVTCRASQDTNNYLNWYQQKPGKAVKLLIYYTSRLQSGVPSRFSGSGSGTDFTLTISSLQPEDFATYFCQQSETLPWTFGQGTKVEIK :: 8.7e-05
chimeric anti-HER3 antibody 5038 (antibody, V domains shown, light chain entry is full length) VH: EVKLVESGPGLVKPSQSLSLTCSVTGYSITSGFYWTWIRQFPGNKLEWMGFISYDGSNNYNPSLKNRISITRDTSKNQFFLKLNSVTTEDTATYYCARGGGYYGNLFDYWGQGTTLTVS VL: DIVMTQTTSSLSASLGDRVTISCRPSQDISNYVNWFQQKPGGTVKLLIFHTSRLHSGVPSRFSGSGSGTDYSLTISTLEQEDIAIYFCQQGITLPWTFGGGTKLEIKR :: 0.00041
humanized anti-HER3 antibody 10810 (antibody, V domains shown) VH: QVQLQESGPGLVKPSQTLSLTCTVSGYSITSGFYWTWIRQHPGNGLEWIGFISYSGSNNYNPSLKNRVTISVDTSKNQFSLKLSSVTAADTATYYCARGGGYYGNLFDYWGQGTLVTVSS VL: DIQMTQSPSSLSASVGDRVTITCRPSQDISNYVNWFQQKPGKAPKLLIFHTSRLHSGVPSRFSGSGSGTDFTLTISSLQPEDIATYYCQQGITLPWTFGQGTKVEIK :: 0.00034
chimeric anti-HER3 antibody 5082 (antibody, V domains shown, light chain entry is full length) VH: EVQLKESGPGLVKPSQSLSLTCSVTGYSITSAYYWNWIRQFPGNKVEWMGYIGYDGRNTYNPSLKNRISITRDTSKNQFFLKLNSLTTEDTATYYCSREGDYGYSDYWGQGTTLTVS VL: DIVMTQATSSLSASLGDRVTVSCRASQDINNYLNWYQQKPDGTVKLLIYYTSRLQSGVPSRFSGSGSGIDYSLTISNLEQEDFVTYFCQQSETLPWTFGGGTKLELKR :: 0.00016

Please look at the following binder next.
Problem: Would you mind telling me what koff value was observed for humanized anti-HER3 antibody 11052 (antibody, V domains shown) VH: QVQLQESGPGLVKPSQTLSLTCTVSGYSITSAYYWNWIRQFPGKGVEWMGYIGYSGRNTYNPSLKNRVTISRDTSKNQFSLKLSSVTAADTAVYYCSREGDYGYSDYWGQGTLVTVSS VL: DIQMTQSPSSLSASVGDRVTVTCRASQDINNYLNWYQQKPGKAVKLLIYYTSRLQSGVPSRFSGSGSGTDYTLTISSLQPEDFATYFCQQSETLPWTFGQGTKLEIK ?
Result: 0.00026
